# Measurement target: AHR (Homo sapiens)
# Experimental protocol: In vitro assay 1: antagonism in human cell line (transactivation assay, kynurenic acid prestimulated)
# Assay conditions: Assay 1: AHR-luc Hum Antagonism IC50 [M], 150 μM kynurenic acid, 20 hours, firefly luciferase
Kindly state log10 IC50 for each of the entries shown.
Base-10 log of IC50, unit M.

Q) Give its log10 IC50 value. Item: C[C@H](NC(=O)c1cc(-c2ccc(C(F)F)cc2)nn(-c2cccc(F)c2)c1=O)C(C)(C)O
A) -7.68

Q) # repeat for CC(C)(O)CCNC(=O)c1cc(-c2ccc(Cl)cc2)nn(-c2cccc(F)c2)c1=O
A) -6.58

Q) # repeat for O=C(N[C@H]1CCCC[C@@H]1O)c1cc(-c2ccc(Cl)cc2)nn(-c2cccc(F)c2)c1=O (relative stereo) [Example 117]
A) -7.44

Q) # repeat for CC[C@@H](CO)NC(=O)c1cc(-c2ccc(OC(F)F)cc2)nn(-c2cccc(F)c2)c1=O
A) -7.30

Q) # repeat for C[C@@H](CO)CNC(=O)c1cc(-c2ccc(C(F)(F)F)cc2)nn(-c2cccc(F)c2)c1=O (single isomer, unassigned)
A) -7.55

Q) # repeat for CN(C)CC(O)CNC(=O)c1cc(-c2ccc(Cl)cc2)nn(-c2cccc(F)c2)c1=O (racemic)
A) -5.52

Q) # repeat for CC(O)C(C)NC(=O)c1cc(-c2ccc(Cl)cc2)nn(-c2cccc(F)c2)c1=O (centres unmarked)
A) -7.33

Q) # repeat for CC(O)C(NC(=O)c1cc(-c2ccc(Cl)cc2)nn(-c2cccc(F)c2)c1=O)C(F)(F)F (mixture of isomers) [Example 197]
A) -7.71

Q) # repeat for CC(C)[C@@H](CO)NC(=O)c1cc(-c2ccc(OC(F)F)cc2)nn(-c2cccc(F)c2)c1=O
A) -7.75

Q) # repeat for CC(O)C(C)NC(=O)c1cc(-c2ccc(OC(F)(F)F)cc2)nn(-c2cccc(F)c2)c1=O (single isomer, unassigned) [Example 181]
A) -7.10

Q) # repeat for O=C(NC(CO)C1CCOC1)c1cc(-c2ccc(Cl)c(F)c2)nn(-c2cccc(F)c2)c1=O (single isomer, unassigned) [Example 294]
A) -6.21

Q) # repeat for C[C@@H](CO)NC(=O)c1cc(-c2ccc(Cl)cc2)nn(-c2cccc(Cl)c2)c1=O
A) -6.78

Q) # repeat for O=C(N[C@@H]1CCCC(F)(F)[C@H]1O)c1cc(-c2ccc(Cl)cc2)nn(-c2cccc(F)c2)c1=O (relative stereo) [Example 274]
A) -7.69

----------
# Measurement target: AHR (Homo sapiens)
# Sequence (P35869 11-848): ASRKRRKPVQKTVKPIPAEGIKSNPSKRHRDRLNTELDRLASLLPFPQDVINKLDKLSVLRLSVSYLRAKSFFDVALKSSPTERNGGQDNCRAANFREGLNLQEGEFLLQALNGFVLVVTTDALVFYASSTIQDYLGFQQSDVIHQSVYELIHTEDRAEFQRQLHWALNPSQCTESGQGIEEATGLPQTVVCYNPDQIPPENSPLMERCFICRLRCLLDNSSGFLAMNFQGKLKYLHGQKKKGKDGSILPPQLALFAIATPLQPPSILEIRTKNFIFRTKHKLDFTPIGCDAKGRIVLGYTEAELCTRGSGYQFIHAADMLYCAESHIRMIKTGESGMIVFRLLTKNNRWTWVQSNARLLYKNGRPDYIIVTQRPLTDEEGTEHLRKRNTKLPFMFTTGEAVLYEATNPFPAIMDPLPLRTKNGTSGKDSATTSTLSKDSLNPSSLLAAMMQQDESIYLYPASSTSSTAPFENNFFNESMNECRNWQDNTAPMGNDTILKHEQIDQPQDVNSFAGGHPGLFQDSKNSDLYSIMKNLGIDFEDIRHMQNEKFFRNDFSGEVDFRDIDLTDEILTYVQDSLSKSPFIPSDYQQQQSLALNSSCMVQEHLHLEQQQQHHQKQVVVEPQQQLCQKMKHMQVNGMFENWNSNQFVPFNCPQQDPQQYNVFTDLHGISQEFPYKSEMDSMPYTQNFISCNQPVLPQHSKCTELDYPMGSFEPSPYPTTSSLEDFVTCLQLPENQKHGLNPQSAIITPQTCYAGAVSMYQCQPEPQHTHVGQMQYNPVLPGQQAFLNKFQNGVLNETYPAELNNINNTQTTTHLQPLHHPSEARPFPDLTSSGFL
# Experimental protocol: In vitro assay 1: antagonism in human cell line (transactivation assay, kynurenic acid prestimulated)
# Assay conditions: Assay 1: AHR-luc Hum Antagonism IC50 [M], 150 μM kynurenic acid, 20 hours, firefly luciferase
Observation type: IC50
Please provide the amount together with its unit, number first.

Q) Give its IC50 value. Item: O=C(NCC(O)C(F)(F)F)c1cc(-c2ccc(C(F)(F)F)cc2)nn(-c2cccc(F)c2)c1=O (single isomer, unassigned; (+)) [Example 244]
A) 3.17e-08 M

Q) # repeat for O=C(N[C@H]1COC[C@@H]1O)c1cc(-c2ccc(Cl)cc2)nn(-c2cccc(F)c2)c1=O (relative stereo) [Example 134]
A) 1.72e-07 M

Q) # repeat for O=C(NC(CO)C1CCOC1)c1cc(-c2ccc(Cl)cc2)nn(-c2cccc(F)c2)c1=O (single isomer, unassigned) [Example 39]
A) 2.76e-08 M
